# credit: PubChem BioAssay (NCI)

- Tested on: MDA-MB-435 melanoma
- assay protocol: NCI-60 one-dose screen, 48 h (100 = growth as untreated, 0 = no growth, -100 = all killed)
- particulars: 10 µM unless noted
This is part of a sample that, as a whole, favours compounds with a hit. Of some 83,000 tested, about 20% had one in any assay.
growth values by entry

- compound: "C=C1C(=O)O[C@H]2[C@H]1CC/C(COC(=O)NCCc1ccc(Br)cc1)=C\\CC[C@@]1(C)O[C@@H]21"
  measurement units: "%"
  growth: 23.9
- compound: "Cc1nc2sccn2c1-c1csc(Nc2ccccc2Cl)n1"
  measurement units: "%"
  growth: 2.78
- compound: "CCSc1nnc(NC(=O)Cc2ccc(Cl)cc2)s1"
  measurement units: "%"
  growth: 98.9
- compound: "Cc1ccc2nc(-c3c(N)n[nH]c3CCCO)[nH]c(=O)c2c1"
  measurement units: "%"
  growth: 110
- compound: "COc1ccc(/C=c2\\sc3n(c2=O)C2C(NN=3)N(C)C(=O)N2C)cc1 (centres undefined)"
  measurement units: "%"
  growth: -60.6
- compound: "Cc1nn(-c2ccc(Cl)cc2)c(=O)n1CCOc1ccccc1Cl"
  measurement units: "%"
  growth: 107
- compound: "CC(C)C[C@H](NC(=O)[C@@H](Cc1ccccc1)n1ccc(Nc2ccccc2)cc1=O)B(O)O"
  measurement units: "%"
  growth: -51.3
- compound: "CCN(CC)P(=O)(N(CC)CC)N(CCCSC/C=C(\\C)CC/C=C(\\C)CCC=C(C)C)CCCN1CCN(C)CC1"
  measurement units: "%"
  growth: 100
- compound: "CC(C)N(Cc1ccc(CN(C(=O)CCl)C(C)C)cc1)C(=O)CCl"
  measurement units: "%"
  growth: 27.2
- compound: "O=S=Nc1ccc([N+](=O)[O-])cc1"
  measurement units: "%"
  growth: 95.5
- compound: "CC1=C(C#N)C(C)(C)C(C#N)=C(C)N1"
  measurement units: "%"
  growth: 105
- compound: "COc1cccc2nc(Nc3ccc(NC(=O)c4ccc5ncccc5c4)cc3)ccc12"
  measurement units: "%"
  growth: 88.7
- compound: "O=C(/C=C/c1ccccc1)n1c(-c2ccc(Cl)cc2)nc2ccccc21"
  measurement units: "%"
  growth: -44.3
- compound: "CCCCC(N)(C(=O)O)C1CCCC1 (centres undefined)"
  measurement units: "%"
  growth: 104
- compound: "COc1ccc2c(c1)C(=O)/C(=C/c1ccc(O)cc1)O2"
  measurement units: "%"
  growth: 93.2
- compound: "CCCCC[C@@H]1Cc2cc(O)c(C(=O)O)c3c2[C@H](C[C@@]2(CCCO2)O3)O1"
  measurement units: "%"
  growth: 97.2
- compound: "CCOC(=O)C1=C(CSC(=S)N(C2CCCCC2)C2CCCCC2)N(C)C(=O)NC1c1ccccc1 (centres undefined)"
  measurement units: "%"
  growth: 58.1
- compound: "COc1ccccc1OCC(=O)Nc1sc2c(c1C(N)=O)CCC2"
  measurement units: "%"
  growth: 78.9
- compound: "O=C(/C=C/CN1CCCCC1)Nc1cc2c(Nc3ccc(F)c(Cl)c3F)ncnc2cc1OCCOC(F)F"
  measurement units: "%"
  growth: 8.14
- compound: "COc1ccc(/C=C/c2cc(N3CCOCC3)c3cc(F)c(F)cc3n2)cc1OC"
  measurement units: "%"
  growth: 51
- compound: "Cc1ccc(Nc2ncnc3c2sc2ncccc23)cc1"
  measurement units: "%"
  growth: 108
- compound: "O=c1[nH]c(CN2CCN(c3ccccc3F)CC2)nc2sc3c(c12)CCC3"
  measurement units: "%"
  growth: 118
- compound: "Clc1nc(-c2cccnc2)nc2sc3c(c12)CCCCCC3"
  measurement units: "%"
  growth: 97.3
- compound: "COc1ccc(NC(=S)/N=c2\\oc3c(OC)cccc3cc2-c2cc3ccccc3[nH]2)cc1"
  measurement units: "%"
  growth: 77.2
- compound: "CCNCc1ccncc1"
  measurement units: "%"
  growth: 95.6
- compound: "COc1cccc(/C=C/c2c(C(=O)O)cccc2[N+](=O)[O-])c1OC"
  measurement units: "%"
  growth: 101
- compound: "CCn1cc(C(=O)O)c(=O)c2cc(F)c(N3CCN(S(=O)(=O)c4ccc(Cl)cc4Cl)CC3)cc21"
  measurement units: "%"
  growth: 12.8
- compound: "CC(Br)C(OC(=O)c1ccccc1Cl)c1cc2c(cc1Br)OCO2 (centres undefined)"
  measurement units: "%"
  growth: 75.3
- compound: "O=C(O)Cc1ccc2c(c1)Cc1cccnc1O2"
  measurement units: "%"
  growth: 103
- compound: "CCCCCCCCCCCCCCCCC(Br)C(=O)O (centres undefined)"
  measurement units: "%"
  growth: 98.4
- compound: "O=C(OCCCCOC(=O)n1cnc2ccccc21)n1cnc2ccccc21"
  measurement units: "%"
  growth: 103
- compound: "Oc1ccc(Cl)cc1-c1cc(-c2ccc(Cl)cc2)n[nH]1"
  measurement units: "%"
  growth: 84.9
- compound: "COc1ccc(/C=C/C(=O)c2cc(OC)c(OC)c(OC)c2)cc1OCc1cn(Cc2ccc(F)cc2)nn1"
  measurement units: "%"
  growth: 5.55
- compound: "CCCCCCCCCN1C(=O)/C(=c2\\sc3n(c2=O)C2C(NN=3)N(CC)C(=O)N2CC)c2ccccc21 (centres undefined)"
  measurement units: "%"
  growth: -9.54
- compound: "CC1Cc2c(N(C)C)ncnc2N(C)c2ccc(Cl)cc21 (centres undefined)"
  measurement units: "%"
  growth: -32.2
- compound: "COc1cccc(C2CC(=O)Nc3c2c(C)nn3-c2nc3ccccc3[nH]2)c1OC (centres undefined)"
  measurement units: "%"
  growth: 58.5
- compound: "c1ccn2nnnc2c1"
  measurement units: "%"
  growth: 99.5
- compound: "CS(=O)(=O)N(c1cc(-c2ccc3ncnc(Nc4cccc(Cl)c4)c3c2)cnc1Cl)S(C)(=O)=O"
  measurement units: "%"
  growth: 15.9
- compound: "CCC1CCc2nc3sc(C(=O)Nc4ccccc4F)c(N)c3cc2C1 (centres undefined)"
  measurement units: "%"
  growth: -15.5
- compound: "COc1cc(Cn2c(SCCC(=O)Nc3ccc(F)cc3)nc3ccccc3c2=O)cc(OC)c1OC"
  measurement units: "%"
  growth: 106
- compound: "COc1ccc(-c2nc3sccn3c2-c2ccnc(NCCNS(=O)(=O)c3ccc(C(F)(F)F)cc3)n2)cc1"
  measurement units: "%"
  growth: 2.65
- compound: "O=C1CCC(=O)N1Cc1ccccc1"
  measurement units: "%"
  growth: 99.4
- compound: "CC(Cc1nnc(SCC(=O)Nc2ccc(I)cc2)n1N)c1ccccc1 (centres undefined)"
  measurement units: "%"
  growth: 99.9
- compound: "Cc1c(C(=O)NCc2ccccc2)[n+](=O)c2cc(F)ccc2n1[O-]"
  measurement units: "%"
  growth: 93.5
